# EXPERIMENTAL SYSTEM: indoleamine 2, 3-dioxygenase (IDO1) (Homo sapiens)
# Sequence (P14902 whole entry): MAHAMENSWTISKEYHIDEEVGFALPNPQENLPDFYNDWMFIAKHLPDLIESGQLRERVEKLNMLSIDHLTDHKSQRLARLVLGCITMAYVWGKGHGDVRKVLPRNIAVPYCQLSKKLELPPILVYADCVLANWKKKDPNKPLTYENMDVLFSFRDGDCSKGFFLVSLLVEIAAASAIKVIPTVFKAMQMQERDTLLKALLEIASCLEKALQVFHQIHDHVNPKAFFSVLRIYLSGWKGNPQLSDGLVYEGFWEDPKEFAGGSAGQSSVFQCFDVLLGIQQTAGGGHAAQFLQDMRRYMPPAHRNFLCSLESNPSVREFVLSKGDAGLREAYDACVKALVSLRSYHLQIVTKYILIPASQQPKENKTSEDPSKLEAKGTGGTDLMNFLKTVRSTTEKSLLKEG
# METHOD NOTES: IDO1 PBMC RapidFire MS assay (kynurenine detection by mass spectrometry)
# Type: cell-based
# Design: to induce the expression of indoleamine 2, 3-dioxygenase (IDO1); host or cells: human PBMC stimulated with IFN-gamma and LPS
# RUN CONDITIONS: human PBMC stimulated with IFN-γ and LPS, 2 days, pIC50, read-out: PBMC PXC50 (converted)
OBSERVATION TYPE: log10 IC50 (log10 of the value in µM)
Use the decimal logarithm of IC50 (µM).

INPUT: Output reported log10 IC50 of the compound Cc1nsc(Nc2cc(-c3ccccc3C(=O)O)ccc2N(CC(C)C)CC(C)C)n1 [example 286] on indoleamine 2, 3-dioxygenase (IDO1) (Homo sapiens).
OUTPUT: -0.70

INPUT: Output reported log10 IC50 of the compound CC(C)CN(c1ccc([C@H](C)CC(=O)O)cc1Nc1cnc(Cl)cn1)[C@H]1CC[C@H](O)CC1 [Example 45] on indoleamine 2, 3-dioxygenase (IDO1) (Homo sapiens).
OUTPUT: -2.90

INPUT: Output reported log10 IC50 of the compound CO[C@H]1CC[C@H](N(CC(C)C)c2ccc([C@H](C)CC(=O)O)cc2Nc2n[nH]c(C#N)n2)CC1 (racemic) [example 222] on indoleamine 2, 3-dioxygenase (IDO1) (Homo sapiens).
OUTPUT: -0.70

INPUT: Output reported log10 IC50 of the compound COCc1nc(Nc2cc([C@H](C)CC(=O)O)ccc2N(CC(C)C)[C@H]2CC[C@@H](OC)CC2)n[nH]1 (racemic) [example 243] on indoleamine 2, 3-dioxygenase (IDO1) (Homo sapiens).
OUTPUT: -1.50

INPUT: Output reported log10 IC50 of the compound COCc1ccc(Nc2cc([C@H](C)CC(=O)O)ccc2N(CC(C)C)[C@H]2CC[C@@H](OC)CC2)nc1 [Example 60] on indoleamine 2, 3-dioxygenase (IDO1) (Homo sapiens).
OUTPUT: -2.00

INPUT: Output reported log10 IC50 of the compound CC(C)CN(c1ccc(C(C)OCC(=O)O)cc1Nc1nc2ccccc2[nH]1)C1CCCCC1 (centres unmarked) [example 173] on indoleamine 2, 3-dioxygenase (IDO1) (Homo sapiens).
OUTPUT: -1.60

Where do the numbers come from? From patent US10899754B2.
